targetEntity: Sodium channel protein type 9 subunit alpha (Homo sapiens)
Sequence (Q15858 whole entry): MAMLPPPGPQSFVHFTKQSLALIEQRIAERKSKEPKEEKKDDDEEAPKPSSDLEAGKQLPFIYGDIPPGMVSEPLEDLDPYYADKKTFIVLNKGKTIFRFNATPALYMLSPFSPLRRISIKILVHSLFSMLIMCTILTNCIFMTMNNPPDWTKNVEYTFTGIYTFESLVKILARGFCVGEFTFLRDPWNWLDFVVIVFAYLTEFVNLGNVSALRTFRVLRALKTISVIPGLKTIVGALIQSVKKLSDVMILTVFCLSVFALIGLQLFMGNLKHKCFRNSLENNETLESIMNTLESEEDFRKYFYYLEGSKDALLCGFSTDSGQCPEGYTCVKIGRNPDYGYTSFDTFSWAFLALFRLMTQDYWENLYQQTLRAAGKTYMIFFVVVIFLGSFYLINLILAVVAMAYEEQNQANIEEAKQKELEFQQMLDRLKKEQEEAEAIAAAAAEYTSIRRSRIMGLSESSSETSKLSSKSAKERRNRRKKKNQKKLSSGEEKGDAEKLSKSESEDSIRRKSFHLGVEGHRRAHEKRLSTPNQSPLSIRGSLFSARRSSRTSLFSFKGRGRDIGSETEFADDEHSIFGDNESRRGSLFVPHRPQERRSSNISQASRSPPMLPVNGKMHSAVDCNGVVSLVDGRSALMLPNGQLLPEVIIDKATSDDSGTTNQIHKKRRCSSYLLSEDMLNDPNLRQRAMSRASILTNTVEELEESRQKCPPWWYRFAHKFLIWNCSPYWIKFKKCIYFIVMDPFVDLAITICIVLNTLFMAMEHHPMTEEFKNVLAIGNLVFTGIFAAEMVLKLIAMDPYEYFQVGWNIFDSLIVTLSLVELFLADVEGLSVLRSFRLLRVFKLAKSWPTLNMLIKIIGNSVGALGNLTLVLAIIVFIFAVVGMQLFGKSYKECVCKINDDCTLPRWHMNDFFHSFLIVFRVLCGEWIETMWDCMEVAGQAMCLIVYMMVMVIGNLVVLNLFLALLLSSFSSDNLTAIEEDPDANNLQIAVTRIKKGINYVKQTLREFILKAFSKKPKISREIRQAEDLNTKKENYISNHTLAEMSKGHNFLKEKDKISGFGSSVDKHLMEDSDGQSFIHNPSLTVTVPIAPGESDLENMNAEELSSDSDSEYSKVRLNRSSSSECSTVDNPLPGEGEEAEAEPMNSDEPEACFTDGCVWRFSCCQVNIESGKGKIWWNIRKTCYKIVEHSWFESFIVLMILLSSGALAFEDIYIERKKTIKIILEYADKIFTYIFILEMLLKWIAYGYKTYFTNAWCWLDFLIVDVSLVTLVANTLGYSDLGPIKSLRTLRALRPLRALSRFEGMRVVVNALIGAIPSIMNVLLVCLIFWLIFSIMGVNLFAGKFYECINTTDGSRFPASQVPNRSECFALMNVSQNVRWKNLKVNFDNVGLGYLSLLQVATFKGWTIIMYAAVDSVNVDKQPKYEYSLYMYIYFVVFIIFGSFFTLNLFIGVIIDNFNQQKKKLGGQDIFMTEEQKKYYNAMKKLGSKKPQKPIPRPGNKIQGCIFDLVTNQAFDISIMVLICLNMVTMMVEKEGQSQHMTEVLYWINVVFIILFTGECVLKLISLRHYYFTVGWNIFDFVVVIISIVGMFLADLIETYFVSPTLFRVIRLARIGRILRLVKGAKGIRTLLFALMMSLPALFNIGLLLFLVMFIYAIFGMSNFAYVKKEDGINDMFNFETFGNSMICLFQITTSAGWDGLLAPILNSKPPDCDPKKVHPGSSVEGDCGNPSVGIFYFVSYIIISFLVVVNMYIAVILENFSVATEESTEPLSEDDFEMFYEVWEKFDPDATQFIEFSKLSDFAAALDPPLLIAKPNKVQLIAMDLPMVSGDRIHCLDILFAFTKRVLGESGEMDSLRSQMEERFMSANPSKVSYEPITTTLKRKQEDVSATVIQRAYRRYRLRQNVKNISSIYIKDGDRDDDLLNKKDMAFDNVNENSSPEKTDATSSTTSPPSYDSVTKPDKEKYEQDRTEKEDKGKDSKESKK
assay: Inhibition of human Nav1.7 expressed in HEK293 cells by automated electrophysiological patch clamp assay
readout: IC50 (nM)

> print(dat)
                                  smilesrepr  readout  observed
 1  Cc1cc(C(F)(F)F)ccc1-n1nnnc1Oc1ccc([C@H]2CC[C@@H](C(N)=O)N2)cc1     IC50      1200
 2  CC(C)(C)c1ccccc1-n1nnnc1Oc1ccc([C@H]2CC[C@@H](C(N)=O)N2)cc1     IC50      1500
 3  CN(C)C(=O)[C@@H]1CC[C@H](c2ccc(Oc3nnnn3-c3ccccc3OC(F)(F)F)cc2)N1     IC50      1800
 4  NC(=O)[C@@H]1CC[C@H](c2ccc(Oc3nnnn3-c3cc(Cl)ccc3OC(F)(F)F)cc2)N1     IC50       680
 5  Cc1cccc(C)c1-n1nnnc1Oc1ccc([C@H]2CC[C@@H](C(N)=O)N2)cc1     IC50       890
 6  NC(=O)[C@@H]1CC[C@H](c2ccc(Oc3nnnn3-c3ccccc3OC(F)(F)F)cc2)N1     IC50      1100
 7  COc1ccc(C)c(-n2nnnc2Oc2ccc([C@H]3CC[C@@H](C(N)=O)N3)cc2)c1     IC50      1100
 8  Cc1ccc(Cl)cc1-n1nnnc1Oc1ccc([C@H]2CC[C@@H](C(N)=O)N2)cc1     IC50       720
 9  CN1[C@@H](c2ccc(Oc3nnnn3-c3ccccc3C(F)(F)F)cc2)CC[C@H]1C(N)=O     IC50      1800
10  NC(=O)[C@@H]1CC[C@H](c2ccc(Oc3nnnn3-c3cc(F)ccc3OC(F)(F)F)cc2)N1     IC50       570
